This collection of values is drawn from paper PMC6719172.

Would you mind telling me the reported Kq (bimolecular quenching constant) of each entry?
- Assayed System: CpLIP2 lipase (Candida parapsilosis, UniProt Q8NIN8)
- Sequence (Q8NIN8 entry or part of it): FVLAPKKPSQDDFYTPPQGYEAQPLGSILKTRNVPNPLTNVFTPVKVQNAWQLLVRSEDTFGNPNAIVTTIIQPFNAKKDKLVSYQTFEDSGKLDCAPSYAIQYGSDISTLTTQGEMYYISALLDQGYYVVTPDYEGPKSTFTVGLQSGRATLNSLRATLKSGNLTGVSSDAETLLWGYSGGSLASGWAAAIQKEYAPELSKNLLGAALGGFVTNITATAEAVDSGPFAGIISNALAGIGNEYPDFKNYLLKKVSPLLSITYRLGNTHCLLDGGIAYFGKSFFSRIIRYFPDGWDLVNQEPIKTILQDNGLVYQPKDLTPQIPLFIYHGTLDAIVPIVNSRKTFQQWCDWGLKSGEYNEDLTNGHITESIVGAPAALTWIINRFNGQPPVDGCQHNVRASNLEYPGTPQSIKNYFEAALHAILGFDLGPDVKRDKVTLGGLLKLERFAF
- Method Description: Quenching of CpLIP2 intrinsic tryptophan fluorescence by flavonols (Stern–Volmer, Lehrer, van't Hoff analysis)
- Format: binding
- Test Context: 318 K; Kq = KSV/τ0, τ0 1.59 ns
The response must be a number in M⁻¹ s⁻¹ with no trailing unit.

Kq (bimolecular quenching constant) recorded for this compound, `O=c1c(O)c(-c2ccc(O)cc2)oc2cc(O)cc(O)c12` , is 1.1e+13

Kq (bimolecular quenching constant) recorded for this compound, `O=c1c(O)c(-c2ccc(O)c(O)c2)oc2cc(O)cc(O)c12` , is 1e+13

Kq (bimolecular quenching constant) recorded for this compound, `O=c1c(O)c(-c2ccccc2)oc2cc(O)cc(O)c12` , is 1.3e+13

Kq (bimolecular quenching constant) recorded for this compound, `O=c1c(O)c(-c2cc(O)c(O)c(O)c2)oc2cc(O)cc(O)c12` , is 7.7e+12

---

- Assayed System: CpLIP2 lipase (Candida parapsilosis)
- Method Description: Quenching of CpLIP2 intrinsic tryptophan fluorescence by flavonols (Stern–Volmer, Lehrer, van't Hoff analysis)
- Assay type: binding
- Test Context: 298 K; Kq = KSV/τ0, τ0 1.59 ns
Observable: Kq (bimolecular quenching constant)
Numeric answer plus unit only.

Form: item `O=c1c(O)c(-c2ccccc2)oc2cc(O)cc(O)c12` ; test system CpLIP2 lipase (Candida parapsilosis); Kq (bimolecular quenching constant): 1.8e+13 M⁻¹ s⁻¹

Form: item `O=c1c(O)c(-c2ccc(O)cc2)oc2cc(O)cc(O)c12` ; test system CpLIP2 lipase (Candida parapsilosis); Kq (bimolecular quenching constant): 1.3e+13 M⁻¹ s⁻¹

Form: item `O=c1c(O)c(-c2ccc(O)c(O)c2)oc2cc(O)cc(O)c12` ; test system CpLIP2 lipase (Candida parapsilosis); Kq (bimolecular quenching constant): 1.1e+13 M⁻¹ s⁻¹

Form: item `O=c1c(O)c(-c2cc(O)c(O)c(O)c2)oc2cc(O)cc(O)c12` ; test system CpLIP2 lipase (Candida parapsilosis); Kq (bimolecular quenching constant): 1e+13 M⁻¹ s⁻¹

---

Would you mind telling me the reported Kd of each entry?
- Assayed System: CpLIP2 lipase (Candida parapsilosis, UniProt Q8NIN8)
- Method Description: Quenching of CpLIP2 intrinsic tryptophan fluorescence by flavonols (Stern–Volmer, Lehrer, van't Hoff analysis)
- Format: binding
- Test Context: Kd (dissociation constant), 308 K
- From the text: The fluorescence quenching spectra of CpLIP2 lipase submitted to increasing concentrations of GAL, KAE, QUE and MYR are shown in Figure 3. A remarkable quenching of the CpLIP2 fluorescence emission was observed. […] The fluorescence quenching is usually described by the linear Stern–Volmer Equations (2) and (3):(2) F0/F = 1 + Ksv [Q] = 1 + Kqτ0 [Q] […] The inaccessible or buried residues are responsible for the remaining fluorescence, which is probably independent of the quencher concentration. […]
The response must be a number in µM with no trailing unit.

Kd recorded for this molecule, O=c1c(O)c(-c2ccccc2)oc2cc(O)cc(O)c12 [GAL, galangin] , is 8

Kd recorded for this molecule, O=c1c(O)c(-c2ccc(O)cc2)oc2cc(O)cc(O)c12 [KAE, kaempferol] , is 14

Kd recorded for this molecule, O=c1c(O)c(-c2ccc(O)c(O)c2)oc2cc(O)cc(O)c12 [QUE, quercetin] , is 24

Kd recorded for this molecule, O=c1c(O)c(-c2cc(O)c(O)c(O)c2)oc2cc(O)cc(O)c12 [MYR, myricetin] , is 11
